assayed_system: T1, BMP-12 (UniProt Q7Z4P5 322-450, limits assumed)
T1 construct: also called BMP12/GDF7
T1 sequence (looked up): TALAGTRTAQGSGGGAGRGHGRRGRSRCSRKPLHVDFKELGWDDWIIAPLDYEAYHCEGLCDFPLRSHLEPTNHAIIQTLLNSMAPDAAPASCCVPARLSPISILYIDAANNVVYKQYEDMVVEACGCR
assay_method_text: peptide resin, filter plate; load 2: 50 mM Acetic Acid, 0.1 M NaCl, pH 4.0
No end group written: not given here.
measured_endpoint: Flow-through K

{"binder": "Ac-VAPPGYHAFYSHGEK [BMP2 N-trunc_2 peptide 745]", "Flow-through K": 1}

(P) Ac-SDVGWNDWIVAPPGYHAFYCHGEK [BMP2 N-trun peptide 750]
(Q) Ac-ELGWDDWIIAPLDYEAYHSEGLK [BMP12 N-trun_1S peptide 749]
Hi there, can you help? I need to know whether P or Q has lower measured Flow-through K. Give the label under which the chosen entry appears.
P

(A) Ac-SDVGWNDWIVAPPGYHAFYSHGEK [BMP2 N-trun 1S peptide 751]
(B) Ac-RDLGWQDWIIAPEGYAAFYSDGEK [BMP5 peptide 748]
(C) Ac-LYVSDVGWNDWIVK (not fully specified (residue 3); printed as Ac-LYV**SDVGWNDWIVK; also: ** after V3 not explained) [BMP2 C-trunc_2 peptide 746]
Arrange the 3 binders from largest to smallest Flow-through K. Lab note: record answer as labels in requested order.
B, C, A
(B: 59, C: 25, A: 6)

Reference source: patent US7754689B2
